# Lookup of reported Dmax 18 h keyed by entry
- TARGET_OR_TEST_SYSTEM: KRAS(G12D) (Homo sapiens, UniProt P01116, G12D)
- Construct: introduced immediately downstream of the initiating Methionine codon of the endogenous KRAS locus; host or cells: GP5d-HiBit-KRAS(G12D), a CRISPR knock-in at the endogenous locus
- Sequence (P01116 1-188 isoform P01116-2 G12D): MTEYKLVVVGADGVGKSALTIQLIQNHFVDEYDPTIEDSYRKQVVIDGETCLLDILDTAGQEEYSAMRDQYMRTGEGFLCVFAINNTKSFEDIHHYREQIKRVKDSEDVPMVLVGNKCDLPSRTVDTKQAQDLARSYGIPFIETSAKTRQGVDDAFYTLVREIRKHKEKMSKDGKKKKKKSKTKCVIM
- ASSAY_PROCEDURE: HiBit degradation assay in GP5d-HiBit-KRAS(G12D) cells (18 h; DC50, Dmax)
- Assay type: cell-based

MOLECULE: CC(C)C(C(=O)N1C[C@H](O)C[C@H]1C(=O)NCc1ccc(C#N)c(Cl)c1)c1cc(OCCCCN2CCCN(c3nccc(-c4noc([C@@]5(C)CCCc6sc(N)c(C#N)c65)n4)n3)[C@@H](C)C2)no1 (stereo partly drawn)
UOM: % Ctrl
Dmax 18 h: 89
--
MOLECULE: CC(C)C(C(=O)N1C[C@H](O)C[C@H]1C(=O)NCc1ccc(C#N)cc1)c1cc(OCCCCN2CCCN(c3nccc(-c4noc([C@@]5(C)CCCc6sc(N)c(C#N)c65)n4)n3)[C@@H](C)C2)no1 (stereo partly drawn)
UOM: % Ctrl
Dmax 18 h: 91
--
MOLECULE: Cc1ncsc1-c1ccc(CNC(=O)[C@@H]2C[C@@H](O)CN2C(=O)C(c2cc(OC/C=C/CN3CCCN(c4nccc(-c5noc([C@@]6(C)CCCc7sc(N)c(C#N)c76)n5)n4)[C@@H](C)C3)no2)C(C)C)cc1 (stereo partly drawn)
UOM: % Ctrl
Dmax 18 h: 90

Values were extracted from patent US20250145608A1.
